tested on: HepG2 cells; test: Biotransformation experiment in HepG2 (concentration in cells and exposure medium); details: HepG2, 15 mg·L^−1 PHE, 48 h
Reported Metric: Biotransformation ratio between metabolites and PHE, cells

>>> obs_value("Oc1ccc2c(ccc3ccccc32)c1")
0.06
>>> obs_value("Oc1ccc2ccc3ccccc3c2c1")
0.04
>>> obs_value("Oc1cccc2ccc3ccccc3c12")
0.05
>>> obs_value("Oc1cccc2c1ccc1ccccc12")
0.01

* * *

The reader will find reported Biotransformation ratio between metabolites and PHE, medium values listed item by item below.
test system: HepG2 cells; test: Biotransformation experiment in HepG2 (concentration in cells and exposure medium); conditions: HepG2, 15 mg·L^−1 PHE, 48 h
Reported Metric: Biotransformation ratio between metabolites and PHE, medium

>>> obs_value("Oc1ccc2ccc3ccccc3c2c1")
0.13
>>> obs_value("Oc1cccc2c1ccc1ccccc12")
0.22
>>> obs_value("Oc1ccc2c(ccc3ccccc32)c1")
0.15
>>> obs_value("Oc1cccc2ccc3ccccc3c12")
0.16

Source listed as paper PMC10352165.
